Tested on: Hep-2 cells
Assay: Toxicity studies (XTT), Hep-2 cells
Format: cell-based
Design: unit not given beside the values
Settings: Table 2, Examples 75 to 82 and 125 to 184, 6d, in µM
A collection of compounds and their measured TC50 (6d)

Compound	TC50 (6d)
O=C(NC1N=C(c2ccccc2)c2ccccc2NC1=O)c1ccccc1F (stereo not shown)	>50
O=C(NC1CCCCC1)NC1N=C(c2ccccc2)c2ccccc2NC1=O (stereo not shown)	>100
O=C(N[C@H]1N=C(c2ccccc2)c2ccccc2NC1=O)c1ccccc1O [Example 80b]	>50
COc1cccc(NC(=O)NC2N=C(c3ccccc3)c3ccccc3NC2=O)c1 (stereo not shown)	>50
CC(C)(C)OC(=O)NC1N=C(c2ccccc2)c2ccccc2NC1=O (stereo not shown)	>50
O=C(NC1N=C(c2ccccc2)c2ccccc2NC1=O)c1cnccn1 (stereo not shown)	>100
O=C(NC1N=C(c2ccccc2)c2ccc(Cl)cc2NC1=O)C1CCCCC1 (stereo not shown)	>100
O=C(N[C@H]1N=C(c2ccccc2)c2ccccc2NC1=O)c1cc(Br)c(Br)o1	>50
O=C(Nc1cccc(F)c1)NC1N=C(c2ccccc2)c2ccccc2NC1=O (stereo not shown)	>50
COc1ccc(C(C)(C)C)cc1C(=O)NC1N=C(c2ccccc2)c2ccccc2NC1=O (stereo not shown)	>50
